experiment: Volume of distribution at steady state in C57Bl6 mouse at 3 mg/kg, iv administered as single dose measured up to 24 hrs ESI-LC/MS-MS analysis; type: ADME, organism-based; conditions: in vivo, read-out: Vdss
MEASUREMENT LABEL: Vd (L/kg)
Response body: numeric value in L/kg, unit text excluded.

Query string: Quick one: Vd for CC(C)(C)OC(=O)n1c2c(c3ccccc31)C[C@H]1C(=O)N3C[C@@H](CC(=O)O)C[C@H]3[C@@H]2N1C(=O)CC1CCC(F)(F)CC1 ?
Result string: 0.934

###

target: OATP1B1 (Homo sapiens, UniProt Q9Y6L6); experiment: Substrate activity at human OATP1B1 expressed in HEK293 cells assessed as increase in compound uptake at 1 uM incubated up to 15 mins LC-MS/MS analysis relative to control relative to control; format: ADME, cell-based; conditions: HEK293 cells expressing human OATP1B1, read-out: FC
Sequence (Q9Y6L6 whole entry): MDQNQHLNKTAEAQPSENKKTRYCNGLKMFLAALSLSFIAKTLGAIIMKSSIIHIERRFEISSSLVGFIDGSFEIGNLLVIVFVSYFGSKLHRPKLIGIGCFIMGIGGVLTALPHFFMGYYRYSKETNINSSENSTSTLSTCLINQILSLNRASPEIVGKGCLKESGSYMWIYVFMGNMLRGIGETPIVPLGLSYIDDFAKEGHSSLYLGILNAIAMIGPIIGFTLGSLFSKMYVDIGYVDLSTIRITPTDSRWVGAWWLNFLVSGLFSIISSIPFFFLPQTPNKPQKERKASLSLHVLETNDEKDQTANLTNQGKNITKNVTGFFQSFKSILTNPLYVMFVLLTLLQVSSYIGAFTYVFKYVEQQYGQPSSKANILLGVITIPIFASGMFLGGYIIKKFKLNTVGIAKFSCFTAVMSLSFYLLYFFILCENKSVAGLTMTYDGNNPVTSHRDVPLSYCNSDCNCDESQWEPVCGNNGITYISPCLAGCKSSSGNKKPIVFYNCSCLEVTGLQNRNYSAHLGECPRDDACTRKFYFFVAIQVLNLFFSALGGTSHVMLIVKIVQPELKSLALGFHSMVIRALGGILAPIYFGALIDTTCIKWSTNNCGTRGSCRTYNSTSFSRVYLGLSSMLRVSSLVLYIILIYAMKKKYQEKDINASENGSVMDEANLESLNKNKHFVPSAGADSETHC
MEASUREMENT LABEL: uptake ratio at 0.25 h, 1 µM

Query string: Quick one: uptake ratio at 0.25 h, 1 µM for CC(C)(C)OC(=O)n1c2c(c3ccccc31)C[C@H]1C(=O)N3C[C@@H](CC(=O)O)C[C@H]3[C@@H]2N1C(=O)CC1CCC(F)(F)CC1 ?
Result string: 6 to 22

###

experiment: Metabolic lability in human liver microsomes incubated up to 20 mins by LC-MS/MS analysis
MEASUREMENT LABEL: metabolized at 20 min (%)
Response body: numeric value in %, unit text excluded.

Query string: Quick one: metabolized at 20 min for CC(C)(C)OC(=O)n1c2c(c3ccccc31)C[C@H]1C(=O)N3C[C@@H](CC(=O)O)C[C@H]3[C@@H]2N1C(=O)CC1CCC(F)(F)CC1 ?
Result string: 20

###

assay: Oral bioavailability in Wistar rat at 10 mg/kg administered as single dose measured up to 24 hrs ESI-LC/MS-MS analysis; type: ADME, organism-based; settings: in vivo
MEASUREMENT LABEL: bioavailability (%)
Response body: numeric value in %, unit text excluded.

Query string: Quick one: bioavailability for CC(C)(C)OC(=O)n1c2c(c3ccccc31)C[C@H]1C(=O)N3C[C@@H](CC(=O)O)C[C@H]3[C@@H]2N1C(=O)CC1CCC(F)(F)CC1 ?
Result string: 9

###

test: Solubility in pH 7.4 buffer; assay type: physicochemical
MEASUREMENT LABEL: solubility

Query string: Quick one: solubility for CC(C)(C)OC(=O)n1c2c(c3ccccc31)C[C@H]1C(=O)N3C[C@@H](CC(=O)O)C[C@H]3[C@@H]2N1C(=O)CC1CCC(F)(F)CC1 ?
Result string: > 853 µM

###

experiment: AUClast in Wistar rat at 10 mg/kg, po administered as single dose treated 2 hrs after dosing with 40 mg/kg, po OATP/MRP2 inhibitor rifampicin and measured up to 24 hrs ESI-LC/MS-MS analysis; assay type: ADME, organism-based; parameters: dose 10 mg/kg, time < 24 hr, route oral; settings: in vivo
MEASUREMENT LABEL: AUC(0-t) at 24 h (ng·h/mL)
Response body: numeric value in ng·h/mL, unit text excluded.

Query string: Quick one: AUC(0-t) at 24 h for CC(C)(C)OC(=O)n1c2c(c3ccccc31)C[C@H]1C(=O)N3C[C@@H](CC(=O)O)C[C@H]3[C@@H]2N1C(=O)CC1CCC(F)(F)CC1 ?
Result string: 7340
